System: HepG2
test.protocol: Cytotoxicity against human HepG2 cells after 48 hrs by MTT assay
Format: functional, cell-based
conditions: HepG2, 48 h
readout.name: IC50 (µM)
Only the number, expressed in µM, is required.

// fetch IC50 given entry CC(C)[C@@H](C)/C=C/[C@@H](C)[C@H]1CC[C@H]2C(=O)[C@@]3(CC[C@]12C)[C@@H](O)C[C@H]1C[C@@H](O)CC[C@@]13C
9.1

Query IC50 for CNC(=O)c1cc(Oc2ccc(NC(=O)Nc3ccc(Cl)c(C(F)(F)F)c3)cc2)ccn1
5.5

====

test.protocol: Selectivity ratio of IC50 for human LO2 cells to IC50 for human HepG2 cells
Type: toxicity
conditions: LO2 cells versus HepG2 cells, read-out: Ratio IC50
Kindly supply the reported selectivity ratio values for the records listed here.
Format: numeric value only, no unit, no commentary.

For the compound CNC(=O)c1cc(Oc2ccc(NC(=O)Nc3ccc(Cl)c(C(F)(F)F)c3)cc2)ccn1 , give its reported selectivity ratio.
1.6

Tell me selectivity ratio reported for CC(C)[C@@H](C)/C=C/[C@@H](C)[C@H]1CC[C@H]2C(=O)[C@@]3(CC[C@]12C)[C@@H](O)C[C@H]1C[C@@H](O)CC[C@@]13C
2.5
